All figures here come from the RNAGym collection of RNA variant scans (doi:10.1073/pnas.2313332121).

B1: TPR t1 (parent)
chain: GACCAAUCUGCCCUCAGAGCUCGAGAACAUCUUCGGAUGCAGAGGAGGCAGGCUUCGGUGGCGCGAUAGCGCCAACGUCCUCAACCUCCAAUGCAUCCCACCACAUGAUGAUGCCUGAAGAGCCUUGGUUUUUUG

# Variants of: B1
# assay: polymerase ribozyme fitness, log enrichment relative to wild type (log ratio); higher = more active; in vitro selection for triplet polymerase activity
Where polymerase ribozyme fitness (log ratio) equals or exceeds -2, the correct label is y; where it does not, the label is n.

Data request: Form field: polymerase ribozyme fitness (log ratio) at least -2? Entry: GACCAAUCGGCCCUCAGAGCUCGAGAACAUCUUCGGAUGCAAAGGAGGCAGGCUUCGGUGGCGCGAUAGCGCCAACGUCCUCAACCUCCAAUGCAUCCCACCACUUGAUGAUGCCUGAAGAGCCUUGGUUUUUUG [U9G G42A A105U]
Data returned: n

Data request: Form field: polymerase ribozyme fitness (log ratio) at least -2? Entry: GACCAAUCUGCCCUCAGAGCUCGAGAACAUCUUCGGAUGCAGAGGAGGCAGGCUUCGGUGGCACGAUAGCGCCAACGUCCUCAACCUCCAAUGCAGCCCACCACAUGAUGAUGCCUGAAGAGCUUUGGUUUUUUG [G63A U96G C124U]
Data returned: y

Data request: Form field: polymerase ribozyme fitness (log ratio) at least -2? Entry: GACCAAUCAACCCUCAGAGCUCGAGAACAUCUUCGGAUGAAGAGGAGGCAGGCUUCGGUGGCGCGAUAGCGCCAACGCCCUCAACCUCCAAUGCAUCCCACCACAUGAUUAUGCCUGAAGAGUCUUGGUUUUUUG [U9A G10A C40A U78C G110U C123U]
Data returned: n

Data request: Form field: polymerase ribozyme fitness (log ratio) at least -2? Entry: GACCAAUCUGCCCUCAGAGCUCGAGAACAUCUUCGGAUGCAGAGGAGGCAGGCUUCGGUGGCGCGAUAGCGCCAACGUCCUCAACCUCCAAUGCAUCCCACCACAUGACGAUGCCUGAAGAGCCUUGGUUUUUUG [U109C]
Data returned: n

Data request: Form field: polymerase ribozyme fitness (log ratio) at least -2? Entry: GACCAAUCUGCCCUCAGAGCUCGAGAACAUCUUCGGAUGAAGAGGAGGCAGGCUUCGGUGGCGCGAUAGCGCCAAUGUCCUCAACCUCCAAUGCAUCCCACCACAUGAUGAUGCCUGAAGAGCCUUGGUUUUUUG [C40A C76U]
Data returned: y

Data request: Form field: polymerase ribozyme fitness (log ratio) at least -2? Entry: GACCAAUCUGCCCUCAGAGUUCGAGCACAUCUUCGGAUGCAUAGGAGGCAGGCGUCGGUGGCGUGAUAGCGCCAACGUCCUCAACCUCCAAUGCAUCCCACCACAUGAUGAUGCCUGAAGAACAUUGGUUUUUUG [C20U A26C G42U U54G C64U G122A C124A]
Data returned: n

Data request: Form field: polymerase ribozyme fitness (log ratio) at least -2? Entry: GACCAAUCUGCCCUCAGAGCUCGAGAACAUCUUCGCAUGCAGAGGGGGCAGGCUUCGGUGGCUCGAUAGCGCCAACGUCCUCAAUCUCCAAUGCAUCCCACCACAUGAUGAUGUCUGAAGAGCCUUGGUUUUUUG [G36C A46G G63U C85U C114U]
Data returned: n

Data request: Form field: polymerase ribozyme fitness (log ratio) at least -2? Entry: GACCAAUCUGCCCUCAGAGCUCGAGAACAUCUUCGGAUGCAGAGGAGGCAGGCUUCGGUGGCGCGAUAGGGCCAACGUCCUCAAACUCCAAUGCAUCCCACCACAUGAUGAUGCCUGAAGAGCCUUGGUUUUUUG [C70G C85A]
Data returned: n

Data request: Form field: polymerase ribozyme fitness (log ratio) at least -2? Entry: GACCAAUCUGCCCUCAGAGCUCGAGAACAUCUUCGGAUGCAGAGGAGGCAGGCUUCGGUUGCGCGAUAGCGCCAACGUUCUCAACCUCCAAUGCAUCCCACCACAUGAUGAUGCCUGAAGAGCCUUGGUUUUUUG [G60U C79U]
Data returned: y

Data request: Form field: polymerase ribozyme fitness (log ratio) at least -2? Entry: GACCAAUCUGUCCUCAGAGCUCGAGAACAUCUUCGGAUGCAGAGGAGGCAGGCUUCGGUAUCGCGAUAGCGCCAACGCCCUCAACGUCCAAUGCAUCCCACCACAUGAUGAUGCCUGAAGAGCCUUGGUUUUUUG [C11U G60A G61U U78C C86G]
Data returned: n

Data request: Form field: polymerase ribozyme fitness (log ratio) at least -2? Entry: GACCAAUCUGCCCUCAGAGCUCGAGAACAUCUUCGGAUGGAGAGGAGGCAGGCUUCGGUGGCGCGAUAGCGCCAACGUCCUCAACCUCCAAAGCAUCCCACCACAUGAUGAUGCCUGAAGAGCCUUGGUUUUUUG [C40G U92A]
Data returned: n

Data request: Form field: polymerase ribozyme fitness (log ratio) at least -2? Entry: GACCAAUCUGCCCUUAGAGCUCGGGAACAUCUUCGGAUGCGGAGGAGGCAGGCUUCGGUGGCGCGAUAGCGCCAACGUCCUCAACCUCCAAUGCAUCCCACCACAUGAUGAUGCUUGAAGAGCCUUGGUUUUUUG [C15U A24G A41G C115U]
Data returned: n

Data request: Form field: polymerase ribozyme fitness (log ratio) at least -2? Entry: GACCAAUCUGCCCUCAGAGCUCGAGAACAUCUUCGGAUGCAGAGGAGGCAGGCUUCGGUGGUUCGAUAGCGCCAACGUCCUCAACCUCCAAUGCAUCCCACCCCAUGAUGAUGACUGAAGAGCCUUGGUUUUUUG [C62U G63U A103C C114A]
Data returned: n

Data request: Form field: polymerase ribozyme fitness (log ratio) at least -2? Entry: GACCAAUCCGCCCUCAGAGCUCGAGAACAUCUUCGGAUGCAGAGGAGGCAGGCUUCGGUGGCGCGACAGCGCCAACGUCCUGAACCUCCAAUGCAUCCCACCACAUGACGAUGCCUGAAGAGCCUUGGUUUUUUG [U9C U67C C82G U109C]
Data returned: n

Data request: Form field: polymerase ribozyme fitness (log ratio) at least -2? Entry: GACCAAUCUGCCCUCAGAGCUCGAGAACAUCUUCGGAUGCAGAGGAGGCAGGCUUCGGUGGCGCGAUAUCGCCAAUGUCCUCAACCUCCAAUCCAUCCCACCACAUGAUGAUGCCUGAAGAGCCUUGGUUUCUUG [G69U C76U G93C U132C]
Data returned: n

Data request: Form field: polymerase ribozyme fitness (log ratio) at least -2? Entry: GACCAAUCUGCCCUCAGAGCUCGAGAACAUCUUCGUAUGCAGAGGAGGCAGGCUUCGGUGGCUCGAUAGCGCCAACGUCUUCACCCUCCAAUGCAUCCCACCACAUGAUGAUGCCUGAAGAGCCUUGGUUUUUUG [G36U G63U C80U A84C]
Data returned: n

Data request: Form field: polymerase ribozyme fitness (log ratio) at least -2? Entry: GACCAAUCUGCCCUCAGAGCUCGAGAACAUCUUCUGAUGCAGAGGAAGCAGGCUUCGGUGGCGCGAUAGCGCCAACGUCCUCAACCUCCAAUGCAUCCCACCACAUGAUGAUGCCUGAAGAGCCUUGGUUUUUUG [G35U G47A]
Data returned: n

Data request: Form field: polymerase ribozyme fitness (log ratio) at least -2? Entry: GACCAAUCUGCCCUCAGAGCUCGAGAGCAUCUUCGGAUGCAGAGGAGGCAGGCUUUGGUGGCGCGAUAGCGCCAACGUCCUCAACCUCCAAUGCAACCCACCACAUGAGGAUGCGUGAAGAGCUUUGGUUUUUUG [A27G C56U U96A U109G C115G C124U]
Data returned: n

Data request: Form field: polymerase ribozyme fitness (log ratio) at least -2? Entry: GACCAACCUGCCCUCCGAGCUCGAGAACAUCUUCGGAUGCAGAGGAGGCAGCCUUCGGUGGCGCGAUAGCGCCAACGUCCUCAACCUCCAAUGCAUCCCACCACAUGAUAAUGCCUGAAGAGCCUUGGUAUUUUG [U7C A16C G52C G110A U130A]
Data returned: n

Data request: Form field: polymerase ribozyme fitness (log ratio) at least -2? Entry: GACCAAUCUGCCCUCAGAGCUCGAGAACAUCUUCGGAUGCAGAGGAGGCAGGCUUCGGUGGCGCGUUAGCGCCAACGUCCUCAAUCUCCAAUGCAUCCCACCACAUGAUGAUGCCUAAAGAGCCUUGGUUUUUUG [A66U C85U G117A]
Data returned: n

Data request: Form field: polymerase ribozyme fitness (log ratio) at least -2? Entry: GACCAAUCUGCCCUCAGAGCUCGAGAACAUCUUCGGAUGCAGAGGAGGCAGGCUUCGGUGGCGCGAUAGCGCCAACGUCCUGAACCUCCGGUGCAUCCCAGCACAUGAUGAUGCCUGAAGAGCCUUGGUUUUUUG [C82G A90G A91G C101G]
Data returned: n

Data request: Form field: polymerase ribozyme fitness (log ratio) at least -2? Entry: GACCAAUCUGCCCUCAGAGCUGGAGAACAUCUUCGGAUGCAGUGGAGGCAGGCUUCGGUGGCGCGAUAGCGCCAACGUCCUCAACCUCCAAUGCAUCCCACCACAUGAUGAUGCCUGAAGAGCCUUGGUUUUUUG [C22G A43U]
Data returned: n

Data request: Form field: polymerase ribozyme fitness (log ratio) at least -2? Entry: GACCAAUCUGCCCUCAGAGCUCGAGAACAUCUUCGGAUGCAGAGGAGGCAGGCUUCGGUGGCGCGAUAGCGCCGACGUCCUCAACCUCCAAUGCAUCCCACCACAUGAUGAAGCCUGAAGAGCCUAGGUUUUUUG [A74G U112A U126A]
Data returned: y

Data request: Form field: polymerase ribozyme fitness (log ratio) at least -2? Entry: GACCAAUCUGCCUUCAGAGCUCGAGAACAUCUUCGGAUGCAGAGGAGGCAGGCUUCGGUGGCGCGAUAGCGACAACGUCCUCAACCUCCAAUGCAUCCCAACACAUGAUGAUGACUGAAGAGCCUUGGUUUUUUG [C13U C72A C101A C114A]
Data returned: y

Data request: Form field: polymerase ribozyme fitness (log ratio) at least -2? Entry: GACCAAUCUGCCCUCAGAGCUCGAGAACAUCUUCUGAUGCAGAGGAGGCAGGCUUCGGUGGCGCGAUAGCGACAACGUCCUCAACCUCCAAUGCAUCCCACCACAUGAUGAUGCCUGAAGAGCCUUGGUUUUUUG [G35U C72A]
Data returned: n

Data request: Form field: polymerase ribozyme fitness (log ratio) at least -2? Entry: GACCAAUCUGCCCUCAGAGCUCGAGAACAUCUUCGGAUGCAGAGGAGGCAGGCUUCGGUGGCGCGAUAGCGCCAACGUCCUCAACCUCCAAUGCAUCCCACCACAUGAUGAUGCCUGAAGAGGCUUGGUUUUAUG [C123G U133A]
Data returned: y

Data request: Form field: polymerase ribozyme fitness (log ratio) at least -2? Entry: GACCAAUGUGCCCUCAGAGCACGAGAACAUCUUCGGAUGCAGAGGAGGCAGGCCUCGGUGGCGCGAUAGCGACAACGUCCUCAACCUCCAAUGCAUCCCACCACAUGAUGAUGCCUGAAGAGCCUUGGUUUUUUG [C8G U21A U54C C72A]
Data returned: y

Data request: Form field: polymerase ribozyme fitness (log ratio) at least -2? Entry: GACCAAUCUGCCCUCAGAGCUCGAGAACAUCUUCGGAUGUAGAGGAGGCAGGCUUCGGUGGCGCGAUAGCGGCAACGUCCUCAACCUCCAAUGCAUCCCACCACAAGAUGAUGCCUGAAGAGGCUAGGUUAUUUG [C40U C72G U106A C123G U126A U131A]
Data returned: y

Data request: Form field: polymerase ribozyme fitness (log ratio) at least -2? Entry: GACCAAUCUGCCCUCAGAGCUCGAGAAGAUCUUCGGAUGCAGAGGAGUCAGGCUUCGGUGGCGCGAUAGCGCCAACGUCCUCAACCUCCAAUGCAUCCCACCACAUGAUGAUGCCUGAAGAGCCUUGGUUUUUUG [C28G G48U]
Data returned: n

Data request: Form field: polymerase ribozyme fitness (log ratio) at least -2? Entry: GACCAAUCUGCCCUCAGCGCUCGAGAACAUCUUCGUAUGCAGAGGAGGCAGGCUUCGGUGGCGCGAUAGCGCCAACGUCCUCAACCUCCAAUGCAUCCCACCACAUGAUGAUGCCUGAAGAGCCUUGGUUUUUUG [A18C G36U]
Data returned: n

Data request: Form field: polymerase ribozyme fitness (log ratio) at least -2? Entry: GACCAAUCUGCCCUCAGAGCUCGAGAACAUCUUCGGAUGCAGUGGAGGCAGGCUUCGGUGGCGCGAUAGCGCCAACGUCCUCAACCUCCAAUGCAACCCACCACAUGAUGAUGCCUGAAGUGCCUUGGUUUUUUG [A43U U96A A121U]
Data returned: y

Data request: Form field: polymerase ribozyme fitness (log ratio) at least -2? Entry: GACCAAUCUGCCCUCAGAGCUCGAGACCAUCUUCGGAUGCAGAGGAGGCAGGCUUAGGUGGCGCGAUAGCGCCAAGGUCCUCAACCUCCAAUGCAUCCCACCACAUGAUGAUGCCUGAAGAGCCUUGGUUUUUUG [A27C C56A C76G]
Data returned: n

Data request: Form field: polymerase ribozyme fitness (log ratio) at least -2? Entry: GACCAAUCUGCCCUCAGAGCUCGAGAACAUCUUCGGAUGCAGAGGAGGCAGGCUUCGGUGGCGCGAUAGCGCCAACGUCCUCAACCUCCAAUCCAUCCCACCACAUGAUGAUGCCUGAAGUGCCUUGGUUUUUUG [G93C A121U]
Data returned: y

Data request: Form field: polymerase ribozyme fitness (log ratio) at least -2? Entry: GACCAAUCUGCCCUCAGAGCUCGAGAACAUCUUCGGAUGCAGAGGAGACAGGCUUCGGUGGCGCGAUAGCGCCAACGUCCUCAAUCUCCAAUGCAUCCCACCACUUGAUGAUGCCUGAAGAGCCUUGGUUUUUUG [G48A C85U A105U]
Data returned: n
